experiment-description: KARI assay of purified S. exigua KARI and variants with NADH (Examples 6-9)
Assay type: biochemical
settings: specific activity ratio
Experimental: S. exigua KARI activity or activities of its variants were assayed kinetically by monitoring the decrease in NADPH or NADH concentration by measuring the change in absorbance at 340 nm. […] Michaelis-Menten constants of the cofactors were determined with varying concentrations of NADPH (200-12 μM final) or NADH (200-6 μM final).
measure: Ratio NADH/NADPH (U/mg)
Give the value as a plain number.

[[record]]
molecule = "Se1_KARI^4E10: S. exigua KARI variant L57V, R58P, S61C (protein, UniProt D0WGK0 1-342, looked up, variant L57V R58P S61C) Ketol-acid reductoisomerase …: MSVKTKEKEMAVTILYEQDVDPKVIQGLKVGIIGYGSQGHAHALNLMDSGVDVRVGVPEGCSSWKTAEEAGLKVTDMDTAAEEADVIMVLVPDEIQPKVYQEHIAAHLKAGNTLAFAHGFNIHYGYIVPPEDVNVIMCAPKGPGHIVRRQFTEGSGVPDLACVQQDATGNAWDIVLSYCWGVGGARSGIIKATFAEETEEDLFGEQAVLCGGLVELVKAGFETLTEAGYPPELAYFECYHEMKMIVDLMYESGIHFMNYSISNTAEYGEYYAGPKVINEQSREAMKEILKRIQDGSFAQEFVDDCNNGHKRLLEQREAINTHPIETTGAQIRSMFSWIKKED"
val = 1.0


State its Ratio NADH/NADPH (U/mg): Se1_KARI^GE11-his6: S. exigua KARI variant G60V (protein, UniProt D0WGK0 1-342, looked up, variant G60V, His6 tag, S. exigua KARI variant G60V) Ketol-acid reductoisomerase …: MSVKTKEKEMAVTILYEQDVDPKVIQGLKVGIIGYGSQGHAHALNLMDSGVDVRVGLREVSSSWKTAEEAGLKVTDMDTAAEEADVIMVLVPDEIQPKVYQEHIAAHLKAGNTLAFAHGFNIHYGYIVPPEDVNVIMCAPKGPGHIVRRQFTEGSGVPDLACVQQDATGNAWDIVLSYCWGVGGARSGIIKATFAEETEEDLFGEQAVLCGGLVELVKAGFETLTEAGYPPELAYFECYHEMKMIVDLMYESGIHFMNYSISNTAEYGEYYAGPKVINEQSREAMKEILKRIQDGSFAQEFVDDCNNGHKRLLEQREAINTHPIETTGAQIRSMFSWIKKED 0.48

Give the reported value of Ratio NADH/NADPH (U/mg) for this record: Se1_KARI^JB7-his6: S. exigua KARI variant S63Q (protein, UniProt D0WGK0 1-342, looked up, variant S63Q, His6 tag, S. exigua KARI variant S63Q) Ketol-acid reductoisomerase …: MSVKTKEKEMAVTILYEQDVDPKVIQGLKVGIIGYGSQGHAHALNLMDSGVDVRVGLREGSSQWKTAEEAGLKVTDMDTAAEEADVIMVLVPDEIQPKVYQEHIAAHLKAGNTLAFAHGFNIHYGYIVPPEDVNVIMCAPKGPGHIVRRQFTEGSGVPDLACVQQDATGNAWDIVLSYCWGVGGARSGIIKATFAEETEEDLFGEQAVLCGGLVELVKAGFETLTEAGYPPELAYFECYHEMKMIVDLMYESGIHFMNYSISNTAEYGEYYAGPKVINEQSREAMKEILKRIQDGSFAQEFVDDCNNGHKRLLEQREAINTHPIETTGAQIRSMFSWIKKED 0.47

For the molecule Se1_KARI^14B7: S. exigua KARI variant Y35H, S63D, I95V (protein, UniProt D0WGK0 1-342, looked up, variant Y35H S63D I95V) Ketol-acid reductoisomerase …: MSVKTKEKEMAVTILYEQDVDPKVIQGLKVGIIGHGSQGHAHALNLMDSGVDVRVGLREGSSDWKTAEEAGLKVTDMDTAAEEADVIMVLVPDEVQPKVYQEHIAAHLKAGNTLAFAHGFNIHYGYIVPPEDVNVIMCAPKGPGHIVRRQFTEGSGVPDLACVQQDATGNAWDIVLSYCWGVGGARSGIIKATFAEETEEDLFGEQAVLCGGLVELVKAGFETLTEAGYPPELAYFECYHEMKMIVDLMYESGIHFMNYSISNTAEYGEYYAGPKVINEQSREAMKEILKRIQDGSFAQEFVDDCNNGHKRLLEQREAINTHPIETTGAQIRSMFSWIKKED , report Ratio NADH/NADPH (U/mg). 0.32
